Ref: the supplement of paper PMC10065799

Tgt: Jak2 (UniProt O60674)
Sequence (O60674 whole entry, looked up): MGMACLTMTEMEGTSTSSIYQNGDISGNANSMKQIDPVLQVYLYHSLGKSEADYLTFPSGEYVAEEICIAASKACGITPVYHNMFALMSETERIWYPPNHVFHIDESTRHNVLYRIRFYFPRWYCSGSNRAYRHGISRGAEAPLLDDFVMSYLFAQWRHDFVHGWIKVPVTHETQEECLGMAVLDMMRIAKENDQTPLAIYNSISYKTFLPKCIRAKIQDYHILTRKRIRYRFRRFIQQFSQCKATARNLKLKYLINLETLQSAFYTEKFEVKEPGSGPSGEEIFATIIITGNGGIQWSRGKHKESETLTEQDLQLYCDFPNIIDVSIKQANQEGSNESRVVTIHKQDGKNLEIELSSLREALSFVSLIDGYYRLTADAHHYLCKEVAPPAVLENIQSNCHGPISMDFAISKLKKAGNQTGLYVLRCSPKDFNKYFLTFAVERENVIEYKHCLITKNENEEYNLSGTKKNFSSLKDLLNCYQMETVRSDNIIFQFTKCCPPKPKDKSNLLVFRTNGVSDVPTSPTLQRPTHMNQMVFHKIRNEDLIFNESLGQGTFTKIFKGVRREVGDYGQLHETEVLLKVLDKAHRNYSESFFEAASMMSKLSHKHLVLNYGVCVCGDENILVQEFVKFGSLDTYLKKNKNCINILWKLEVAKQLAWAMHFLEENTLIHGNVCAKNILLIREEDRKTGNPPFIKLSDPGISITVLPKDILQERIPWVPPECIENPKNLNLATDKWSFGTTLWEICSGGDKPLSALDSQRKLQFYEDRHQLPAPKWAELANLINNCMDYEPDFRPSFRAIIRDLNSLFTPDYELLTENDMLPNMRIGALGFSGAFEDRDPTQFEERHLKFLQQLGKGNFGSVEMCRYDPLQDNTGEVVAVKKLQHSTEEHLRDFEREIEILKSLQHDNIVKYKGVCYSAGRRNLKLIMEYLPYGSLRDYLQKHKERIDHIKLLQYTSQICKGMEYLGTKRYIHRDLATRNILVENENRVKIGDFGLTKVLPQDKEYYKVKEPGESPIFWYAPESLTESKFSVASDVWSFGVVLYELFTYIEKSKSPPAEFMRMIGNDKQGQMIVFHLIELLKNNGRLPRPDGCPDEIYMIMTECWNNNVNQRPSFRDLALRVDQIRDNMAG
Run Description: phosphorylation enrichment, bacterial display (enrichment ratio); higher = better substrate or ligand; peptides without Tyr show the background;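 note: 11-residue human phosphosite peptides and single-mutation variants displayed on the E. coli surface, counted by deep sequencing, each peptide's frequency after selection divided by its frequency in the unselected input library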;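 note: frequency after pTyr selection over input frequency; kinase dosed for 20-30% of maximal phosphorylation in three min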
Exercise: state measured phosphorylation enrichment for each of the sequences provided.
Answer field: number only, no words.

Asked: Write down phosphorylation enrichment measured for item SSQILYKLEQS [THADA_Y701_V699I]
Given back: 0.7

Asked: Write down phosphorylation enrichment measured for item LKKLEYLNLPL [LRRC6_Y70_A74P]
Given back: 0.694

Asked: Write down phosphorylation enrichment measured for item CTTIHYNFMCK [TP53_Y234_N239K_YF]
Given back: 0.631

Asked: Write down phosphorylation enrichment measured for item EILLSYPRTGF [TGM1_Y365_L366P_YF]
Given back: 0.872

Asked: Write down phosphorylation enrichment measured for item GLRQGYFVEAQ [APCS_Y142]
Given back: 0.807

Asked: Write down phosphorylation enrichment measured for item ADLLVYIKALN [HPRT1_Y81_D80V]
Given back: 1.23

Asked: Write down phosphorylation enrichment measured for item IIEDPYFGNDS [ACP1_Y132_YF]
Given back: 1.45
